Tested on: human PGHS-2 promoter
test.protocol: PGHS-2 promoter (-831/+123) luciferase reporter assay
Format: cell-based
assay.conditions: UM-SCC-22B cells, 12 h; PMA 100 nM, PD98059 10 μM, PDTC 100 μM, SB203580 10 μM
metric: PGHS-2 promoter activity (luciferase)

# compound, result
rows = [
    ("C[S+]([O-])c1ccc(-c2nc(-c3ccncc3)c(-c3ccc(F)cc3)[nH]2)cc1 (stereo not shown)", "inhibited"),
    ("COc1cccc(-c2cc(=O)c3ccccc3o2)c1N", "inhibited"),
    ("S=C(S)N1CCCC1 [PDTC, pyrrolidine dithiocarbamate]", "inhibited"),
]

* * *

System: PGHS-2 protein expression
test.protocol: PGHS-2 protein by immunoblotting of nuclear/cytosol proteins
Type: cell-based, human
assay.conditions: confluent UM-SCC-22B cells, 12 h; PD98059 10 μM, SB203580 10 μM, PDTC 100 μM, PMA 100 nM

# molecule, PGHS-2 protein / PGHS-2 expression
records = [
    ("C[S+]([O-])c1ccc(-c2nc(-c3ccncc3)c(-c3ccc(F)cc3)[nH]2)cc1 (stereo not shown) [SB203580]", "minimally inhibited"),
    ("S=C(S)N1CCCC1 [PDTC, pyrrolidine dithiocarbamate]", "minimally inhibited"),
]
